compounds and their reported pIC50
- tested.target: glutathione S-transferase (GST)-linked full-length human Syk protein (Homo sapiens)
pIC50: −log10 of the molar value.

These recorded examples may help you get a feel for the data.
COc1nn(C)c2c(F)cc(Nc3nc(N[C@H](CC(C)C)[C@H](C)N)c(F)cc3C(N)=O)cc12 :: > 8.00
Cc1cccc(Nc2nc(N[C@H](C3CCC3)[C@H](C)N)c(F)cc2C(N)=O)c1 :: > 8.00
Cc1ncc(Nc2nc(N[C@@H]3CCCC[C@@H]3N)c(F)cc2C(N)=O)cc1F :: 7.30 to 8.00

Query string: Look up pIC50: `CC[C@H](N)[C@@H](CC)Nc1nc(Nc2ccnc(OCCOC)c2)c(C(N)=O)cc1F`
Result string: > 8.00

Query string: Look up pIC50: `COc1ncc(Nc2nc(N[C@H](c3ccccc3)[C@H](C)N)c(F)cc2C(N)=O)cc1-n1ccnn1`
Result string: > 8.00

Query string: Look up pIC50: `COc1cc(Nc2nc(N[C@H](C3CCC3)[C@H](C)N)c(F)cc2C(N)=O)cc(OC)c1`
Result string: > 8.00

Query string: Look up pIC50: `C[C@H](N)[C@H](Nc1nc(Nc2ccc3c(c2)c(N(C)C)nn3C)c(C(N)=O)cc1F)c1cccc(F)c1`
Result string: > 8.00

Query string: Look up pIC50: `CCC[C@@H](Nc1nc(Nc2cccc3c2cnn3CCOC)c(C(N)=O)cc1F)[C@H](C)N`
Result string: > 8.00

###

- tested.target: glutathione S-transferase (GST)-linked full-length human Syk protein (Homo sapiens, UniProt P43405)
measure.name: IC50

These recorded examples may help you get a feel for the data.
CCn1ncc2c(Nc3nc(N[C@H](c4ccc(Cl)s4)[C@H](C)N)c(F)cc3C(N)=O)cccc21 [Example 2-512] :: < 10 nM
CC[C@H](N)[C@H](Nc1nc(Nc2cnc(C)c(-n3nccn3)c2)c(C(N)=O)cc1F)C1CC1 [Example 2-358] :: 10 to 50 nM
COc1ncc(Nc2nc(N[C@H](C3CCC3)[C@H](C)N)c(F)cc2C(N)=O)cc1F [Example 2-63] :: 10 to 50 nM
C[C@H](N)[C@H](Nc1nc(Nc2cc(F)c3c(c2)c(N(C)C)nn3C)c(C(N)=O)cc1F)C1CCC1 [Example 2-192] :: < 10 nM
COC[C@@H](Nc1nc(Nc2cnc3c(c2)c(OC)nn3C)c(C(N)=O)cc1F)[C@H](C)N [Example 2-256] :: 50 to 100 nM
CC(C)C[C@H](CN)Nc1nc(Nc2cc(F)c3c(c2)c(N(C)C)nn3C)c(C(N)=O)cc1F [Example 2-185] :: < 10 nM
COc1cc(Nc2nc(N[C@H](C3CC3)[C@H](C)N)c(F)cc2C(N)=O)ccc1C [Example 2-49] :: < 10 nM
CCn1ncc2c(Nc3nc(N[C@H](c4ccc(F)c(F)c4)[C@H](C)N)c(F)cc3C(N)=O)cccc21 [Example 2-555] :: < 10 nM
COc1cc(Nc2nc(N[C@H](C3CC3)[C@H](C)N)c(F)cc2C(N)=O)cc(OC)c1 [Example 2-47] :: < 10 nM
CC[C@@H](Nc1nc(Nc2cncc3c2cnn3CC)c(C(N)=O)cc1F)[C@H](C)N [Example 2-318] :: < 10 nM

Now for a further molecule.
Query string: Look up IC50: NC(=O)c1cc(F)c(N[C@@H]2CCCC[C@@H]2N)nc1Nc1cccc(OC(F)(F)F)c1 [Example 2-444]
Result string: < 10 nM

###

- tested.target: glutathione S-transferase (GST)-linked full-length human Syk protein (Homo sapiens, UniProt P43405)
measure.name: IC50

These recorded examples may help you get a feel for the data.
CNc1n[nH]c2ccc(Nc3nc(N[C@H](C4CC4)[C@H](C)N)c(F)cc3C(N)=O)cc12 :: 10 to 50 nM
CC[C@H](N)[C@@H](C)Nc1nc(Nc2cc(F)c3c(c2)c(N(C)C)nn3C)c(C(N)=O)cc1F :: < 10 nM
CC[C@@H](Nc1nc(Nc2cccc(-n3nccn3)c2)c(C(N)=O)cc1F)[C@H](C)N :: < 10 nM

Query string: Look up IC50: `Cc1ncc(Nc2nc(N[C@H](c3ccc(F)cc3)[C@H](C)N)c(F)cc2C(N)=O)cc1-n1nccn1`
Result string: < 10 nM

Query string: Look up IC50: `Cc1nn(C)c2ncc(Nc3nc(N[C@@H](CN)CC(C)C)c(F)cc3C(N)=O)cc12`
Result string: < 10 nM

Query string: Look up IC50: `COc1ccc(Nc2nc(N[C@H](C3CCC3)[C@H](C)N)c(F)cc2C(N)=O)cc1OC`
Result string: < 10 nM

Query string: Look up IC50: `CCn1ncc2c(Nc3nc(N[C@H](C(C)C)[C@H](C)N)c(F)cc3C(N)=O)cccc21`
Result string: 50 to 100 nM

###

- tested.target: glutathione S-transferase (GST)-linked full-length human Syk protein (Homo sapiens, UniProt P43405)
pIC50: −log10 of the molar value.
measure.name: pIC50

COC[C@@H](Nc1nc(Nc2ccc3c(c2)c(OC)nn3C)c(C(N)=O)cc1F)[C@H](C)N [Example 2-121] :: > 8.00
COCCn1ncc2c(Nc3nc(N[C@H](CC(C)C)[C@H](C)N)c(F)cc3C(N)=O)cccc21 [Example 2-308] :: > 8.00
CC[C@H](N)[C@@H](CC)Nc1nc(Nc2cc(F)c3c(c2)c(N(C)C)nn3C)c(C(N)=O)cc1F [Example 2-195] :: 7.30 to 8.00
C[C@H](N)[C@H](Nc1nc(Nc2cccc(-n3nccn3)c2)c(C(N)=O)cc1F)C1CC1 [Example 2-479] :: > 8.00
CC[C@@H](Nc1nc(Nc2ccc(C)c(C)c2)c(C(N)=O)cc1F)[C@H](C)N [Example 2-477] :: > 8.00
CCn1nc(OC)c2cc(Nc3nc(N[C@H](C4CC4)[C@H](C)N)c(F)cc3C(N)=O)ccc21 [Example 2-73] :: > 8.00
COc1nn(CC(F)F)c2ccc(Nc3nc(N[C@H](C4CC4)[C@H](C)N)c(F)cc3C(N)=O)cc12 [Example 2-74] :: > 8.00
CC[C@H](N)[C@@H](C)Nc1nc(Nc2ccc3c(c2)c(N(C)C)nn3CCOC)c(C(N)=O)cc1F [Example 2-507] :: 7.00 to 7.30

Query string: Look up pIC50: CCn1ncc2c(Nc3nc(N[C@@H]4CCOC[C@@H]4N)c(F)cc3C(N)=O)cccc21 [Example 2-330]
Result string: > 8.00

Query string: Look up pIC50: CNc1ncc(Nc2nc(N[C@H](C3CCC3)[C@H](C)N)c(F)cc2C(N)=O)cc1F [Example 2-275]
Result string: 7.30 to 8.00

Query string: Look up pIC50: NC[C@@H](Cc1ccccc1)Nc1nc(Nc2cnc(N3CCOCC3)c(F)c2)c(C(N)=O)cc1F [Example 2-365]
Result string: 7.00 to 7.30

Query string: Look up pIC50: COc1nn(CC(F)F)c2ccc(Nc3nc(N[C@H](CC(C)C)[C@H](C)N)c(F)cc3C(N)=O)cc12 [Example 2-54]
Result string: > 8.00

Query string: Look up pIC50: CC[C@H](N)[C@H](Nc1nc(Nc2ccnc(OCCOC)c2)c(C(N)=O)cc1F)C1CC1 [Example 2-360]
Result string: 7.30 to 8.00

Query string: Look up pIC50: Cc1ncc(Nc2nc(N[C@@H]3CCC(F)(F)C[C@@H]3N)c(F)cc2C(N)=O)cc1-n1nccn1 (racemic) [Example 2-564]
Result string: 7.30 to 8.00

Query string: Look up pIC50: CCCC[C@@H](Nc1nc(Nc2cnc3c(c2)c(N(C)C)nn3C)c(C(N)=O)cc1F)[C@H](C)N [Example 2-291]
Result string: 7.30 to 8.00

Query string: Look up pIC50: CCC[C@@H](Nc1nc(Nc2cnc(OCC)c(-n3ccnn3)c2)c(C(N)=O)cc1F)[C@H](C)N [Example 2-207]
Result string: > 8.00

###

- tested.target: glutathione S-transferase (GST)-linked full-length human Syk protein (Homo sapiens, UniProt P43405)
measure.name: IC50

These recorded examples may help you get a feel for the data.
CC(C)C[C@H](CN)Nc1nc(Nc2cncc3c2cnn3CC(F)F)c(C(N)=O)cc1F :: < 0.01 µM
CN(C)c1nn(C)c2ccc(Nc3nc(N[C@@H]4CCOC[C@@H]4N)c(F)cc3C(N)=O)cc12 :: < 0.01 µM
COCCn1nc(N(C)C)c2cc(Nc3nc(N[C@H](CC(C)C)[C@H](C)N)c(F)cc3C(N)=O)ccc21 :: 0.01 to 0.05 µM
CCn1ncc2cc(Nc3nc(N[C@H](C)[C@@H](N)C4CC4)c(F)cc3C(N)=O)ccc21 :: 0.01 to 0.05 µM
COCCn1nc(N(C)C)c2cc(Nc3nc(N[C@H](C4CC4)[C@H](C)N)c(F)cc3C(N)=O)ccc21 :: 0.01 to 0.05 µM

Query string: Look up IC50: `COc1cc(Nc2nc(N[C@H](C3CCC3)[C@H](C)N)c(F)cc2C(N)=O)ccc1C`
Result string: < 0.01 µM

Query string: Look up IC50: `CN(C)c1n[nH]c2ccc(Nc3nc(N[C@@H]4CCCC[C@@H]4N)c(F)cc3C(N)=O)cc12`
Result string: < 0.01 µM
